Protocol Summary: Solubility study (water, SGF, SIF, preclinical vehicle, bio-relevant media)
Assay type: physicochemical
Assay Conditions: simulated gastric fluid; low pH (0.1 N HCl); read-out: solubility
Readout Type: solubility

1) C[C@]1(C(N)=O)CC[C@@H](n2c(Nc3c(Cl)cc(Cl)cc3Cl)nc3cnc(N[C@@H]4CCOC[C@H]4F)nc32)CC1 = ~1700 µg/mL

* * *

Protocol Summary: Solubility study (water, SGF, SIF, preclinical vehicle, bio-relevant media)
Format: physicochemical
Assay Conditions: water (pH 8.1); read-out: solubility
Readout Type: solubility (µg/mL)

1. C[C@]1(C(N)=O)CC[C@@H](n2c(Nc3c(Cl)cc(Cl)cc3Cl)nc3cnc(N[C@@H]4CCOC[C@H]4F)nc32)CC1 [Compound 1] = 3
